test system: P. aeruginosa PA259-96196; assay type: cell-based, Pseudomonas aeruginosa; conditions: novobiocin in combination with the UTBLP
Non-standard residues stand in square brackets, D forms with d. Residues, ends and D or L forms follow the SMILES beside them. *: point of attachment. Lys(Me3) = C[N+](C)(C)CCCC[C@H](N)C(=O)O; Octanoyl = CCCCCCCC(=O)*
Parameter: MICantibiotic [MICcombo]. Scope: all listed entries.
Could you give me the number in µg/mL? Just the number is fine.

CCCCCCCC(=O)N[C@@H](CCCCN(C)C)C(=O)NCCCN(CCCNC(=O)[C@H](CCCCN(C)C)NC(=O)CCCCCCC)CC(=O)N[C@@H](CCCCN(C)C)C(N)=O [UTBLP 3] = 2048
CCCCCCCC(=O)NCCCC[C@H](NC(=O)CCCCCCC)C(=O)N[C@@H](CCCC[N+](C)(C)C)C(=O)N[C@@H](CCCC[N+](C)(C)C)C(=O)N[C@@H](CCCC[N+](C)(C)C)C(=O)N[C@@H](CCCC[N+](C)(C)C)C(N)=O [UTBLP 8] (Octanoyl-K(Octanoyl)[Lys(Me3)][Lys(Me3)][Lys(Me3)][Lys(Me3)]-NH2) = 1024

Any idea what its MICantibiotic [MICcombo] is? The molecule is CCCCCCCC(=O)N[C@@H](CCCCN)C(=O)NCCCN(CCCNC(=O)[C@H](CCCCN)NC(=O)CCCCCCC)CC(=O)N[C@@H](CCCCN)C(N)=O [UTBLP 1]
128

----------
system: P. aeruginosa PA262-101856; format: cell-based, Pseudomonas aeruginosa; details: UTBLP in combination with rifampicin
Parameter: MICUTBLP [MICcombo]. Scope: all listed entries.
Could you give me the number in µg/mL? Just the number is fine.

CCCCCCCC(=O)N[C@@H](CCCCN)C(=O)NCCCN(CCCNC(=O)[C@H](CCCCN)NC(=O)CCCCCCC)CC(=O)N[C@@H](CCCCN)C(N)=O [UTBLP 1] = 16
CCCCCCCC(=O)N[C@@H](CCCCNC)C(=O)NCCCN(CCCNC(=O)[C@H](CCCCNC)NC(=O)CCCCCCC)CC(=O)N[C@@H](CCCCNC)C(N)=O [UTBLP 2] = 0.25

Any idea what its MICUTBLP [MICcombo] is? The molecule is CCCCCCCC(=O)N[C@@H](CCCCN(C)C)C(=O)NCCCN(CCCNC(=O)[C@H](CCCCN(C)C)NC(=O)CCCCCCC)CC(=O)N[C@@H](CCCCN(C)C)C(N)=O [UTBLP 3]
0.25

----------
Parameter: MICUTBLP [MICcombo]. Scope: all listed entries.
system: A. baumannii AB027; assay type: cell-based, Acinetobacter baumannii; details: UTBLP in combination with rifampicin
Non-standard residues stand in square brackets, D forms with d. Residues, ends and D or L forms follow the SMILES beside them. *: point of attachment. Lys(Me2) = CN(C)CCCC[C@H](N)C(=O)O; Lys(Me) = CNCCCC[C@H](N)C(=O)O; Octanoyl = CCCCCCCC(=O)*

Worked cases, MICUTBLP [MICcombo] given:
CCCCCCCC(=O)NCCCC[C@H](NC(=O)CCCCCCC)C(=O)N[C@@H](CCCCNC)C(=O)N[C@@H](CCCCNC)C(=O)N[C@@H](CCCCNC)C(=O)N[C@@H](CCCCNC)C(N)=O [UTBLP 6] (Octanoyl-K(Octanoyl)[Lys(Me)][Lys(Me)][Lys(Me)][Lys(Me)]-NH2) = 16 µg/mL
CCCCCCCC(=O)N[C@@H](CCCCN)C(=O)NCCCN(CCCNC(=O)[C@H](CCCCN)NC(=O)CCCCCCC)CC(=O)N[C@@H](CCCCN)C(N)=O [UTBLP 1] = 8 µg/mL
CCCCCCCC(=O)NCCCC[C@H](NC(=O)CCCCCCC)C(=O)N[C@@H](CCCCN(C)C)C(=O)N[C@@H](CCCCN(C)C)C(=O)N[C@@H](CCCCN(C)C)C(=O)N[C@@H](CCCCN(C)C)C(N)=O [UTBLP 7] (Octanoyl-K(Octanoyl)[Lys(Me2)][Lys(Me2)][Lys(Me2)][Lys(Me2)]-NH2) = 8 µg/mL

Any idea what its MICUTBLP [MICcombo] is? The compound is CCCCCCCC(=O)NCCCC[C@H](NC(=O)CCCCCCC)C(=O)N[C@@H](CCCCN)C(=O)N[C@@H](CCCCN)C(=O)N[C@@H](CCCCN)C(=O)N[C@@H](CCCCN)C(N)=O [UTBLP 5] (Octanoyl-K(Octanoyl)KKKK-NH2)
2 µg/mL
